# Study system: UniProt P00761
# Sequence (P00761 9-231): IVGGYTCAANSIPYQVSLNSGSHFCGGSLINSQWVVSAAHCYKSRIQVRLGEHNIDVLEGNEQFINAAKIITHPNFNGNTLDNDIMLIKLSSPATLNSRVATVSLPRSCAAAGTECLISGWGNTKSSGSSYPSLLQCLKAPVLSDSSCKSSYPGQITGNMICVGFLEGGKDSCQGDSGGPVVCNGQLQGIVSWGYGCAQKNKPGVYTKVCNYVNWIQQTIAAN
Readout kind: pKi
Scale note: pKi = -log10(concentration in M).

Q: // output pKi; input N=C(N)c1ccc(C(NC(=O)OCc2ccccc2)P(=O)(O)Oc2ccccc2)cc1 (stereo not shown) [Compound 2] ; system UniProt P00761
Result: 2.28
